biological target: NEDD8-conjugating enzyme Ubc12 (Homo sapiens) + NEDD8-activating enzyme E1 regulatory subunit (Homo sapiens) (UniProt P61081+Q13564); assay: inhibitors of cullin neddylation, primary screen, biochemical, TR-FRET, uHTS, NAE and Ubc12 (AID 651699); conditions: at 25 µM
Sequence (P61081 whole entry, looked up): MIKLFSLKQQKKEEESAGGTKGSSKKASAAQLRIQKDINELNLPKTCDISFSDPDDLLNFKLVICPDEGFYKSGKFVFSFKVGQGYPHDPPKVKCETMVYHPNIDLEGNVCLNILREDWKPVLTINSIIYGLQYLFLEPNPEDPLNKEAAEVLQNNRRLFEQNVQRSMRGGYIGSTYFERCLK
Sequence (Q13564 whole entry, looked up): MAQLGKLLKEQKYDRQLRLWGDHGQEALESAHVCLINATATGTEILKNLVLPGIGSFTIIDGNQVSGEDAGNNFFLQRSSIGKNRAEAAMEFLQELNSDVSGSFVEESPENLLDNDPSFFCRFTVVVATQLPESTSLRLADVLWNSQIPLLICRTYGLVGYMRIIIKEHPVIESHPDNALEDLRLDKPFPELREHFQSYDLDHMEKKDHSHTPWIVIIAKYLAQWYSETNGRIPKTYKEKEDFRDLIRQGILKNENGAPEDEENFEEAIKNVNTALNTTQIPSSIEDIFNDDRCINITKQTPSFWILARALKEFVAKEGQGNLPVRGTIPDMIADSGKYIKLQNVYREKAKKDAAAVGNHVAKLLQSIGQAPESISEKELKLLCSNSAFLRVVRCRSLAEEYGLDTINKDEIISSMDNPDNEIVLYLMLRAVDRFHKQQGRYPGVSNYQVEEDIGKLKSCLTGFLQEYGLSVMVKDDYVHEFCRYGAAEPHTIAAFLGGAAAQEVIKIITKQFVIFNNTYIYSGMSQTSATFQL
The campaign covered roughly 360,000 compounds. About 2,100 (0.58%) were called active. Cut-off read from the data, not from the text of the source: active = inhibition above about 36%; inactive = the rest. The sample as a whole holds a higher share of actives than the screen did.
Outcome codes: active, inactive

compound	class
Oc1cccc(C2c3[nH]c4ccccc4c3CCN2Cc2cnn(-c3ccccc3)c2)c1 (stereo not given)	inactive
O=C(O)C(F)(F)C(NCc1ccccc1)c1ccccc1 (stereo not given)	inactive
Cc1sc2c(c1C)c(=O)n(-c1ccccc1)c1nncn21	inactive
COc1cccc(C2c3[nH]c4ccccc4c3CCN2Cc2cccc(C)n2)c1 (stereo not given)	active
Cc1ccc(CN(Cc2cccnc2)C(=S)Nc2cccc(Cl)c2C)cc1	inactive
CCOC(=O)C1(Cc2ccccc2C)CCCN(C(=O)CCc2c(C)noc2C)C1 (stereo not given)	inactive
COc1ccc(C2c3[nH]c4ccccc4c3CCN2CCCn2cccn2)cc1C (stereo not given)	active
COc1ccc(C2CC(c3cccs3)=NN2C(=O)CSc2nnc(N)s2)cc1OC (stereo not given)	inactive
CCO[C@H]1OC(C(=O)NCc2ccccc2)=C[C@@H](c2coc3ccccc3c2=O)[C@@H]1CCCO	inactive
COc1ccc(C2CC(c3cccs3)=NN2C(=O)COC(=O)c2cc3ccccc3cc2O)cc1OC (stereo not given)	inactive

----------
target: NEDD8-conjugating enzyme Ubc12 (Homo sapiens) + NEDD8-activating enzyme E1 regulatory subunit (Homo sapiens) (UniProt P61081+Q13564); assay: inhibitors of cullin neddylation, primary screen, biochemical, TR-FRET, uHTS, NAE and Ubc12 (AID 651699); details: at 25 µM
The whole screen tested about 360,000 compounds, of which about 2,100 (0.58%) were called active. No stated cut-off is given here; in the data, active means inhibition above about 36%; inactive means the rest. Only a selection was taken, and actives are over-represented in it overall.
Outcome codes: active, inactive

compound	class
O=C1NC(c2ccncc2)Nc2sc3c(c21)CCCC3 (stereo not given)	active
Cc1ncc(CO)c(/C=N/NC(=O)c2cccc(S(=O)(=O)N3CCCC3)c2)c1O	active
O=C(NNC1=NCCC1)c1cccc(S(=O)(=O)N2CCCCC2)c1	inactive
COc1ccc(CNC(=O)[C@@H]2CC=C[C@@H]3CCN(C4CC4)C(=O)[C@@H]32)cc1	inactive
CCN1CCCC1CNC(=O)Cn1cnc2ccc(S(=O)(=O)N3CCC(C)CC3)cc2c1=O (stereo not given)	inactive
CS(=O)(=O)Nc1ccc(C2=NN(S(C)(=O)=O)C(c3cccs3)C2)cc1 (stereo not given)	active
Cc1ccc(C2CC(c3cccc(NS(C)(=O)=O)c3)=NN2S(C)(=O)=O)cc1 (stereo not given)	inactive
CCN1CCCC1Cn1cnc2c([nH]c3cc(OC)ccc32)c1=O (stereo not given)	inactive
CCOC(=O)c1cnc(SCC(=O)Nc2cccc(OC)c2)nc1N	inactive
COc1ccc(OC)c(NC(=O)CSc2nc(N)c(-c3ccccc3)c(=O)[nH]2)c1	inactive

----------
molecular target: NEDD8-conjugating enzyme Ubc12 (Homo sapiens) + NEDD8-activating enzyme E1 regulatory subunit (Homo sapiens) (UniProt P61081+Q13564); experiment: inhibitors of cullin neddylation, primary screen, biochemical, TR-FRET, uHTS, NAE and Ubc12 (AID 651699); details: at 25 µM
Hit rate of the full screen: of about 360,000 compounds, about 2,100 (0.58%) were called active. Rule as the data show it: active = inhibition above about 36%; inactive = the rest. The list comes from a sample in which actives are over-represented; it also holds close analogues and randomly drawn compounds.
Outcome codes: active, inactive

compound	class
CC(=O)NCCc1ccc(S(=O)(=O)Nc2ccc(C)c(S(=O)(=O)N3CCOCC3)c2)cc1	inactive
COc1ccc(CNC(=O)CN(c2ccc(OC)c(Cl)c2)S(=O)(=O)c2ccc(C)cc2)cc1	inactive
Cc1cccc(N)c1SC1CCCCC1O (stereo unspecified)	inactive
CC(C)C[C@H]1CNC(=O)C(=O)N1C[C@@H]1CCCN1C[C@H](Cc1ccccc1)N1C[C@H](CC(C)C)N(CC2CCCCCC2)C(=O)C1=O	inactive
Cc1ccc(C(=O)NNC(=O)OC(C)(C)C)c(Cl)c1	inactive
CC(C)Cc1nc(Cl)c(C#N)c2c1CCC2	inactive
CCCCc1cc2c(s1)CCCC/C2=N/O	inactive
CCC(C)c1ccc(NC(=O)COC(=O)C2CCCC2)cc1 (stereo unspecified)	inactive
O=C(NNc1c2ccccc2nc2ccccc12)c1cc2ccccc2cc1O	inactive
Cc1ccc(O)c(NC(=S)NC(=O)COc2ccc(Br)cc2)c1	inactive
CC(C)Cc1nc(N2CCOCC2)c(C#N)c2c1CCC2	active
